The values you see were collected from patent EP1205473A1.

Biological target: vesamicol receptors (Rattus norvegicus)
Assay: Inhibition experiment: inhibition of binding of radioactive-iodine-labeled DRC140 to P2 fractions
Set-up: Synaptic vesicles were extracted and separated from the brain of a rat; from tissue; host or cells: rat brain without cerebellum: P2, crude synaptic vesicles, purified synaptic vesicles
Details: inhibitive concentration at 50% (IC50), Receptor Vesamicol
quantity: IC50
Hey, just the number and the unit after it is fine.

Cc1cccc(N2CCN([C@@H]3Cc4c(I)cccc4C[C@H]3O)CC2)c1C (racemic) ... 1.67 nM

Give one value of IC50 per listed compound.
1. Nc1ccccc1N1CCN([C@@H]2Cc3cc(I)ccc3C[C@H]2O)CC1 (racemic)
2. Cc1ccc(I)cc1N1CCN([C@@H]2Cc3c(N)cccc3C[C@H]2O)CC1 (racemic)
3. Cc1ccc(C)c(N2CCN([C@@H]3Cc4ccc(I)cc4C[C@H]3O)CC2)c1 (racemic)

Response:
1: 0.38 nM; 2: 8.47 nM; 3: 0.88 nM

###

Molecular target: UniProt:Q62666
Test: Saturation experiment of I-125 labeled DRC140 on brain cell fractions (Scatchard plots)
Format: binding
Design: Synaptic vesicles were extracted and separated from the brain of a rat; from tissue; host or cells: rat brain without cerebellum: P2, crude synaptic vesicles, purified synaptic vesicles
Conditions: Kd, P2 fraction; average value ± standard deviation
quantity: Kd (nM)
Numbers only, in nM.

Request: Please indicate recorded Kd of OC1Cc2cccc([125I])c2CC1N1CCN(c2ccccc2)CC1 (stereo not shown) [I-125 labeled DRC140] measured with UniProt:Q62666.
Response: 0.41

###

Biological target: vesamicol receptors (Rattus norvegicus, UniProt Q62666)
Sequence (Q62666 whole entry): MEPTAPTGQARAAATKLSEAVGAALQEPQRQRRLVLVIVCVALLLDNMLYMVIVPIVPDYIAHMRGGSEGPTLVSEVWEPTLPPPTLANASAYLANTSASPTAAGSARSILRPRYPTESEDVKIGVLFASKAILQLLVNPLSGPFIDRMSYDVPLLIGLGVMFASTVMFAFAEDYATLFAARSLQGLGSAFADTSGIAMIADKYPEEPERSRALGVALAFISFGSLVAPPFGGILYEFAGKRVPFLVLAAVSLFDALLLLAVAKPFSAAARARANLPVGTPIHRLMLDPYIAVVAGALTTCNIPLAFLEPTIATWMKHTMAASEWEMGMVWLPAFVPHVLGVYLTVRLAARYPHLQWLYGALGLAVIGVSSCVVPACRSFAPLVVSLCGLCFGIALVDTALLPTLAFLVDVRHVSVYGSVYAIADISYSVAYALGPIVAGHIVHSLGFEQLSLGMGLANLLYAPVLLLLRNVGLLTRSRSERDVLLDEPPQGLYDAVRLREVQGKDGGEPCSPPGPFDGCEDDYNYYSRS
Assay: Inhibition experiment: inhibition of binding of radioactive-iodine-labeled DRC140 to P2 fractions
Design: Synaptic vesicles were extracted and separated from the brain of a rat; from tissue; host or cells: rat brain without cerebellum: P2, crude synaptic vesicles, purified synaptic vesicles
Conditions: read-out: inhibitive concentration at 50% (IC50), Receptor Vesamicol
quantity: pIC50
Answers are plain numbers, as −log10 of the molar value.

Request: Check the records and state pIC50 for O[C@@H]1Cc2cccc(I)c2C[C@H]1N1CCC(c2ccccc2)CC1 [(-)-IBVM, 5-iodobenzovesamicol, reference compound]
Response: 9.49

###

Target: serotonin 5-HT2A receptors (Rattus norvegicus, UniProt P14842)
Sequence (P14842 whole entry): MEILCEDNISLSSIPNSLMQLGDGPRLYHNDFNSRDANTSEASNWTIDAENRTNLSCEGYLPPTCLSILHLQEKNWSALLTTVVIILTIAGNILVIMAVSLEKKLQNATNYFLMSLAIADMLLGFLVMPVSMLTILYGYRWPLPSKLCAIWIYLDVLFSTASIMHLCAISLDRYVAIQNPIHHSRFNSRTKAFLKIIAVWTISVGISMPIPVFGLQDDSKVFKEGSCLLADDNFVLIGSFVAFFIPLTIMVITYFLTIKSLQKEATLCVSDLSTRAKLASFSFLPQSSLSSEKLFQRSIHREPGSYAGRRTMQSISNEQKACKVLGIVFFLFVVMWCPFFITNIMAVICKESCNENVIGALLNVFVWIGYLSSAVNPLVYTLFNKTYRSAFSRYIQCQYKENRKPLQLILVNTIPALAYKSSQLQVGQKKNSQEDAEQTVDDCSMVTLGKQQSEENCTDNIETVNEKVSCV
Assay: Receptor binding test: inhibition of tritium-labeled ketanserin binding to brain homogenate
Parameters: species or system Male Wistar rats
Details: read-out: Inhibitive concentration at 50% (IC50), Serotonin receptor 5-HT2A
quantity: IC50

Request: Name the value of IC50 reported for Cc1ccc(C)c(N2CCN([C@@H]3Cc4c(I)cccc4C[C@H]3O)CC2)c1 (single isomer, unassigned) when tested on serotonin 5-HT2A receptors (Rattus norvegicus, UniProt P14842).
Response: > 20 µM

###

Target: sigma receptors (Cavia porcellus)
Construct: The brain was immediately extracted; The cerebellum was removed from the brain; from tissue; host or cells: guinea pig brain without cerebellum, membrane pellet
Experiment: Receptor binding test: inhibition of tritium-labeled (+) pentazocine binding to brain homogenate
Set-up: species or system male guinea pig
quantity: IC50 (nM)
Give bare numbers, in nM.

Request: Kindly indicate its recorded IC50. Item: OC1CCCCC1N1CCC(c2ccccc2)CC1 (single isomer, unassigned; (-)) [(-)-Vesamicol, 2-(4-phenyl-piperidino)cyclohexanol, reference compound]
Response: 66.5

###

Molecular target: sigma receptors (Cavia porcellus, UniProt Q60492)
Construct: The brain was immediately extracted; The cerebellum was removed from the brain; from tissue; host or cells: guinea pig brain without cerebellum, membrane pellet
Sequence (Q60492 whole entry): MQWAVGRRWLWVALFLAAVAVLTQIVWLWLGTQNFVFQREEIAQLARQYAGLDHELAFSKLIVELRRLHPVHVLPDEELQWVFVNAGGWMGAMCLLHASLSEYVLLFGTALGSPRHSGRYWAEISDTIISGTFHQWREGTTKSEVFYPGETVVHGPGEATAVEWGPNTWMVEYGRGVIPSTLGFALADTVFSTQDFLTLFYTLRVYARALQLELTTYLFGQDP
Test: Receptor binding test: inhibition of tritium-labeled (+) pentazocine binding to brain homogenate
Design: species or system male guinea pig
Conditions: Inhibitive concentration at 50% (IC50), Sigma α-1 receptor
Protocol: Properties relating to binding of the vesamicol piperazine derivatives of the present invention to various receptors were examined as follows. Specifically, ligands which combine with each receptor were incubated together with homogenates prepared as follows. To measure affinity to sigma receptors, tritium-labeled (+) pentazocine was added to a brain homogenate prepared as follows. […]
Values of IC50 strictly less than 200 nM map to Criterion met, and values of at least 200 nM map to Criterion not met.

Request: Is 200 nM strictly greater than the compound's reported IC50? compound: Cc1cccc(N2CCN([C@@H]3Cc4c(I)cccc4C[C@H]3O)CC2)c1C (racemic)
Response: Criterion not met

Request: Does this compound meet the criterion IC50 < 200 nM? Cc1ccc(I)cc1N1CCN([C@@H]2Cc3c(N)cccc3C[C@H]2O)CC1 (racemic)
Response: Criterion not met

Request: IC50 under 200 nM? Item: CCc1ccccc1N1CCN([C@@H]2Cc3c(I)cccc3C[C@H]2O)CC1 (racemic)
Response: Criterion not met

Request: Hello, I'm reviewing records and need to know if IC50 of Cc1ccccc1N1CCN([C@@H]2Cc3c(I)cccc3C[C@H]2O)CC1 (single isomer, unassigned) [DRE342] is below 200 nM. Could you check?
Response: Criterion met

Request: Hello, is IC50 of the following compound strictly smaller than 200 nM? Cc1ccc(C)c(N2CCN([C@@H]3Cc4c(I)cccc4C[C@H]3O)CC2)c1 (racemic) [DRE348]
Response: Criterion not met

Request: In plain terms, does Cc1ccc(C)c(N2CCN([C@@H]3Cc4c(I)cccc4C[C@H]3O)CC2)c1 (single isomer, unassigned) [DRE351] come in under 200 nM for IC50?
Response: Criterion not met

Request: Problem: For the compound Cc1cccc(C)c1N1CCN([C@@H]2Cc3c(I)cccc3C[C@H]2O)CC1 (racemic) , is IC50 under 200 nM?
Response: Criterion not met

Request: Would you kindly verify if IC50 of Cc1ccccc1N1CCN([C@@H]2Cc3c(I)cccc3C[C@H]2O)CC1 (racemic) [DRE334] is strictly less than 200 nM?
Response: Criterion met

###

Can you tell me pIC50 for the items I'm about to list?
Biological target: serotonin 5-HT1A receptors (Rattus norvegicus, UniProt P19327)
Construct: The hippocampi were immediately collected from the brains; from tissue; host or cells: rat hippocampus membranes
Sequence (P19327 whole entry): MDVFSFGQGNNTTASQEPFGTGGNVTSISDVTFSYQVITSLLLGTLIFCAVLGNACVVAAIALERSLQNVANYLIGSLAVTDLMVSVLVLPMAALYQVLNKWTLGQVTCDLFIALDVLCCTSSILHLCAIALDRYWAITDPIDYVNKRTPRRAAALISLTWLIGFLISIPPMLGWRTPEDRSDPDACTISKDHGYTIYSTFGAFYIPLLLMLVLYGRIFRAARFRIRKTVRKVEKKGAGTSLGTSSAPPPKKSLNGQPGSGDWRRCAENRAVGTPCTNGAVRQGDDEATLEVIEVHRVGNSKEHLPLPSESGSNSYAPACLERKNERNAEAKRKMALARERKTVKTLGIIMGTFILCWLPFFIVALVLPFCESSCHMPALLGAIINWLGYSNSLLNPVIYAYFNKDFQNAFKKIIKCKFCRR
Assay: Receptor binding test: inhibition of tritium-labeled 8-hydroxy-DPAT binding to brain (hippocampus) homogenate
Set-up: species or system Male Wistar rats
Answers are plain numbers, as −log10 of the molar value.

Give pIC50 for all compounds that follow.
1. O[C@@H]1Cc2cc(I)ccc2C[C@H]1N1CCN(c2ccccc2)CC1 (racemic) [DRG449]
2. Cc1ccccc1N1CCN([C@@H]2Cc3c(I)cccc3C[C@H]2O)CC1 (single isomer, unassigned) [DRE342]
3. Cc1ccc(C)c(N2CCN([C@@H]3Cc4c(I)cccc4C[C@H]3O)CC2)c1 (single isomer, unassigned) [DRE351]

Response:
[5.32, 6.29, 6.18]

###

Could you please report measured IC50 for the items listed next?
Target: vesamicol receptors (Rattus norvegicus, UniProt Q62666)
Assay: Inhibition experiment: inhibition of binding of radioactive-iodine-labeled DRC140 to P2 fractions
Parameters: Synaptic vesicles were extracted and separated from the brain of a rat; from tissue; host or cells: rat brain without cerebellum: P2, crude synaptic vesicles, purified synaptic vesicles
Conditions: IC50 (nM) Average ± S.D

COc1ccccc1N1CCN(CCCNc2c(C)c(=O)n(C)c(=O)n2C)CC1 [5-Methylurapidil, reference compound] ... > 5000 nM
CNC(=O)Oc1ccc2c(c1)[C@]1(C)CCN(C)[C@@H]1N2C [Physostigmine, reference compound] ... > 5000 nM
CC1=NN=C(c2ccc(N)cc2)c2cc3c(cc2C1)OCO3 [GYKI52466, reference compound] ... > 5000 nM
OC1CCCCC1N1CCC(c2ccccc2)CC1 (single isomer, unassigned; (+)) [(+)-Vesamicol, 2-(4-phenyl-piperidino)cyclohexanol, reference compound] ... > 5000 nM
Cc1ccccc1NC(=N)Nc1ccccc1C [DTG, reference compound] ... 3820 nM

State the recorded IC50 for every item in the following list.
1. CN(C(=O)Cc1ccc(Cl)c(Cl)c1)C(CN1CCCC1)c1cccc(OCC(=O)O)c1 (stereo not shown) [ICI204, 448, reference compound]
2. OC1CCCCC1N1CCC(c2ccccc2)CC1 (single isomer, unassigned; (-)) [(-)-Vesamicol, 2-(4-phenyl-piperidino)cyclohexanol, reference compound]

Response:
["> 5000 nM", "58.2 nM"]

###

Molecular target: vesamicol receptors (Rattus norvegicus, UniProt Q62666)
Test: Inhibition experiment: inhibition of binding of radioactive-iodine-labeled DRC140 to P2 fractions
Design: Synaptic vesicles were extracted and separated from the brain of a rat; from tissue; host or cells: rat brain without cerebellum: P2, crude synaptic vesicles, purified synaptic vesicles
Conditions: inhibitive concentration at 50% (IC50), Receptor Vesamicol
pIC50: −log10 of the molar value.
# pIC50 >= 9 gives TRUE, anything below gives FALSE

Request: Has Cc1ccccc1N1CCN([C@@H]2Cc3c(I)cccc3C[C@H]2O)CC1 (single isomer, unassigned) [DRE341] a recorded pIC50 greater than or equal to 9?
Response: FALSE

Request: Tell me whether pIC50 is at least 9 here: Nc1ccccc1N1CCN([C@@H]2Cc3c(I)cccc3C[C@H]2O)CC1 (single isomer, unassigned) [DRF419]
Response: TRUE

Request: Reported pIC50 reaches at least 9 for Oc1ccccc1N1CCN([C@@H]2Cc3c(I)cccc3C[C@H]2O)CC1 (racemic) ?
Response: FALSE

Request: Dear colleague, could you confirm whether OC1CCCCC1N1CCC(c2ccccc2)CC1 (single isomer, unassigned; (-)) [(-)-Vesamicol, 2-(4-phenyl-piperidino)cyclohexanol, reference compound] has pIC50 at or above 9?
Response: FALSE

Request: Item Cc1ccc(N2CCN([C@@H]3Cc4c(I)cccc4C[C@H]3O)CC2)cc1 (racemic) with pIC50 of 9 or above?
Response: FALSE
